Data origin, for the record: paper PMC7265341

Target: CDK13/Cyclin K (Homo sapiens, UniProt Q14004)
Sequence (O75909 whole entry): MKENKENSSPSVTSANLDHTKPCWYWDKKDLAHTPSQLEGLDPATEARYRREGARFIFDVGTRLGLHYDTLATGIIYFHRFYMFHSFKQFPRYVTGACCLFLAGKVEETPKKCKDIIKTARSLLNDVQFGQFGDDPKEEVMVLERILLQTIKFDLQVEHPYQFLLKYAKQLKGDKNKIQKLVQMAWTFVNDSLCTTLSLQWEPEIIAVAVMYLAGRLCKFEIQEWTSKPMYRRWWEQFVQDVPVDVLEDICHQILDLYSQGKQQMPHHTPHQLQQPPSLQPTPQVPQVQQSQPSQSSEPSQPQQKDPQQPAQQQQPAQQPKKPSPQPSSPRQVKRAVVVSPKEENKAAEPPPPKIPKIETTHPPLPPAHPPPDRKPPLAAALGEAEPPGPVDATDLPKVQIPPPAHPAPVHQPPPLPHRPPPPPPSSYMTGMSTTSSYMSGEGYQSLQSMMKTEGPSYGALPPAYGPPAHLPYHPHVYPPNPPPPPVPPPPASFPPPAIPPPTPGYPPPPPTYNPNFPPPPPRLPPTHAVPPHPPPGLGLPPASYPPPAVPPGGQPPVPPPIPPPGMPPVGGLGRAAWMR
Sequence (Q14004 other isoform, or with tags, fused parts or gaps): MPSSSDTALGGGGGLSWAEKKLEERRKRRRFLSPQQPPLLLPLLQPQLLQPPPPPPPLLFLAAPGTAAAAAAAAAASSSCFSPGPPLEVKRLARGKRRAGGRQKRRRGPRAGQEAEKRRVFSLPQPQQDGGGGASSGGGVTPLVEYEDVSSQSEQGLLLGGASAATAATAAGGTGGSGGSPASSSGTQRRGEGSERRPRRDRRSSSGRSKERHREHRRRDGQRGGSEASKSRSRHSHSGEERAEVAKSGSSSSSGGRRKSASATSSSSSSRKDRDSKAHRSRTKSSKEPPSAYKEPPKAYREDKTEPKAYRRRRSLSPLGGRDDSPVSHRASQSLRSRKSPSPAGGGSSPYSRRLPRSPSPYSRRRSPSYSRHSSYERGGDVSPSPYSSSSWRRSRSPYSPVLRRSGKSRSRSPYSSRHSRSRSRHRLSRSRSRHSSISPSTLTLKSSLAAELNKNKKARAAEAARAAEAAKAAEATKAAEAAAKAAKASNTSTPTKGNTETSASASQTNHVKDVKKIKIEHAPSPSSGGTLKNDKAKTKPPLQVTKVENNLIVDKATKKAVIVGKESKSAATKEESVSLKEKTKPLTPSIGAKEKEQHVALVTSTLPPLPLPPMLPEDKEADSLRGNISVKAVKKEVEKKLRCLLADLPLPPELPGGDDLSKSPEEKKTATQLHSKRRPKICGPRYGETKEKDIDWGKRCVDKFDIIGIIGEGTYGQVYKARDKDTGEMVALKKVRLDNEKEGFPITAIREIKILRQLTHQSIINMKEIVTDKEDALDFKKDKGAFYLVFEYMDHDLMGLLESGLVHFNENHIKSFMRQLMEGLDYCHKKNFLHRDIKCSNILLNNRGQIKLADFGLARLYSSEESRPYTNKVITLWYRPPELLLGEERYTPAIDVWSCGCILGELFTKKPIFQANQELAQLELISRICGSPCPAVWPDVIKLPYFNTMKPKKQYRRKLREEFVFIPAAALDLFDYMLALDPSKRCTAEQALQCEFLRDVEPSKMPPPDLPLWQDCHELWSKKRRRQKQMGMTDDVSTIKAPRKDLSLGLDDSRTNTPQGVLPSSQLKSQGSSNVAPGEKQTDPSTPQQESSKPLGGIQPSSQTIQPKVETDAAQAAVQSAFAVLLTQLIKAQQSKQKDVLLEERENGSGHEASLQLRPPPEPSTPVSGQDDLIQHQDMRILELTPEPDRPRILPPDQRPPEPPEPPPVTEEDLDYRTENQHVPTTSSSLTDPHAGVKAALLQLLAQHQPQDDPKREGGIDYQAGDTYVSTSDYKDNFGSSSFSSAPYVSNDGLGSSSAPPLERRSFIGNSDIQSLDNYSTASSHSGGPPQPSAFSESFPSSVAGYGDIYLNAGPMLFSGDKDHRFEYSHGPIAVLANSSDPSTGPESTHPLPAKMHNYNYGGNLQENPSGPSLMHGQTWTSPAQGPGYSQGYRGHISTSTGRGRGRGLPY
Assay: NanoBRET live-cell target engagement, CDK13-NanoLuc/Cyclin K in HEK-293
Assay type: binding
Conditions: CDK13/K; 10µM; average of replicates; read-out: Inhibition at 10µM (%) Average
So basically: inhibition at 10 µM at 20% or higher? That is true. Lower than 20%? That is false.

O=C(NC1CCNCC1)c1[nH]ncc1NC(=O)c1c(Cl)cccc1Cl :: true
CC(C)c1cnn2c(NCc3ccccc3)cc(NCCCCCCN)nc12 :: true
CCN1CCN(Cc2ccc(Nc3ncc(F)c(-c4cc(F)c5nc(C)n(C(C)C)c5c4)n3)nc2)CC1 :: false
CCCCOc1c(C(=O)c2c(F)cc(C)cc2F)c[nH]c2nncc1-2 :: false
CCN1CCN(Cc2ccc(NC(=O)Nc3ccc(Oc4cc(NC)ncn4)cc3)cc2C(F)(F)F)CC1 :: true
C[C@H]1CC[C@H](n2c3cnccc3c3cnc(Nc4ccc5c(n4)CCN(C(=O)CO)C5)nc32)CC1 :: false
COc1cc(F)ccc1-c1ncnc(Nc2cccc(C[S@](C)(=N)=O)c2)n1 :: false
Cc1ncc(-c2ccnc(Nc3ccc(S(C)(=O)=O)cc3)n2)n1C(C)C :: false
COc1cc(F)ccc1-c1cc(Nc2cc(CS(C)(=N)=O)ccn2)ncc1F (stereo not drawn) :: true
